# Test system: chronic granulocytic leukemia cell strain K562
# assay info: In-vitro tumor cell proliferation inhibition, MTT
# Type: cell-based, human
# test parameters: 72 hours
IC50 values by entry
Hi! Could you send only the number? It should be in nM, unit omitted.

Worked examples, 5 compounds total:
CC(C)n1c(Nc2cccnc2)nc2cnc(Nc3ccc(N4CCN(C)CC4)cc3)nc21 [Compounds 8-29] | 240
CN1CCN(c2ccc(Nc3ncc4nc(Nc5cccc([N+](=O)[O-])c5)n(C5CCCC5)c4n3)cc2)CC1 [Compounds 8-44] | 96.5
COc1ccc(Nc2nc3cnc(Nc4ccc(N5CCN(C)CC5)cc4)nc3n2C(C)C)cc1 [Compounds 8-18] | 1220
CC(C)n1c(Nc2ccc(Br)cc2)nc2cnc(Nc3ccc(N4CCN(C)CC4)cc3)nc21 [Compounds 8-15] | 303
C#Cc1cccc(Nc2nc3cnc(Nc4ccc(N5CCN(C)CC5)cc4)nc3n2C2CCCC2)c1 [Compounds 8-46] | 250

# input Which IC50 reading was recorded for the compound C#Cc1cccc(Nc2nc3cnc(Nc4ccc(N5CCN(C)CC5)cc4)nc3n2C(C)C)c1 [Compounds 8-12] ?
# output 221

# input Now this one: CN1CCN(c2ccc(Nc3ncc4nc(Nc5ccccc5)n(C5CC5)c4n3)cc2)CC1 [Compounds 8-23]
# output 5200

# input Next entry: CC(C)n1c(Nc2ccc(OCc3cccc(F)c3)c(Cl)c2)nc2cnc(Nc3ccc(N4CCN(C)CC4)cc3)nc21 [Compounds 8-19]
# output 2790

====

# Test system: non-small cell lung carcinoma cell strain H292 (EGFR WT)
# assay info: In-vitro tumor cell proliferation inhibition, MTT
# Type: cell-based, human
# test parameters: Homo sapiens, NCI-H292, 72 hours
readout name: IC50 (nM)
Give the value, in units of nM, as a plain number.

# input Query (molecule): COc1cc(C(=O)NN2CCN(C)CC2)ccc1Nc1ncc2nc(Nc3ccccc3)n(C(C)C)c2n1 ; field requested: IC50
# output 138

====

# assayed system: EGFR wild type (Homo sapiens (Human), UniProt P00533)
# Sequence (P00533 25-1210): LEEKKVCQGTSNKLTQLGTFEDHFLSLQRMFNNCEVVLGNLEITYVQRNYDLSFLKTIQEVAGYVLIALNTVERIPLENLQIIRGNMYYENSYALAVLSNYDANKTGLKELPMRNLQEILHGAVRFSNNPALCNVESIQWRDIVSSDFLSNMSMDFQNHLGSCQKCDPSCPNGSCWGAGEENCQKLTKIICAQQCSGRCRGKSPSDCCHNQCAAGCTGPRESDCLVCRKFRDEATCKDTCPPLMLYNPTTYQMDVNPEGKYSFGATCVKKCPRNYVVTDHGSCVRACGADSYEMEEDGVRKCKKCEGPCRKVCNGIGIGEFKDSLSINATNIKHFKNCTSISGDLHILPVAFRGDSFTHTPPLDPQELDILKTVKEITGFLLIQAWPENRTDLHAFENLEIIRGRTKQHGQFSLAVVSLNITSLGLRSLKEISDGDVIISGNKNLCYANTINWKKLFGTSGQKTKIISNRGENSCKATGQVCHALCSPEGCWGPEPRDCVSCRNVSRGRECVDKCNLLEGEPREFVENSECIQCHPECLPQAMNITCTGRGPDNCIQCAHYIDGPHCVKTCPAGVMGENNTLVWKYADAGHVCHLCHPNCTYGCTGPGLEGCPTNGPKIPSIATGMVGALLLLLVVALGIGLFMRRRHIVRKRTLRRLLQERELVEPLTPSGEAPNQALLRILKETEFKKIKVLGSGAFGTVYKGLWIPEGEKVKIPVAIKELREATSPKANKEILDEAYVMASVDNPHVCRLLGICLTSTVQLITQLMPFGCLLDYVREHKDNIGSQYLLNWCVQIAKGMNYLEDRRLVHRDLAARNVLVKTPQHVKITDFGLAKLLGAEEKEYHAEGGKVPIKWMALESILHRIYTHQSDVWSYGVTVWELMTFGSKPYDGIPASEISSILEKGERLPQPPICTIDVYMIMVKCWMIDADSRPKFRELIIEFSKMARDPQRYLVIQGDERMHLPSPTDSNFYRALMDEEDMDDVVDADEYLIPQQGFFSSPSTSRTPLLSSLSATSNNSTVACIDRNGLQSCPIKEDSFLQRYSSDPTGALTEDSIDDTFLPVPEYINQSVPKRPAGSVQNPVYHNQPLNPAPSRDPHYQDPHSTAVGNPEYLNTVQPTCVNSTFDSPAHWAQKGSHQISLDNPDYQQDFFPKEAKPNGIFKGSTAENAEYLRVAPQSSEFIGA
# assay info: Kinase inhibitory activity, isotopic labeling (γ-33P-ATP)
# Type: biochemical
# test parameters: ATP 10 μM (Km)
# Description: The object of this assay was to test the inventive compounds for the kinase inhibitory activity in vitro. In this assay, an isotopic labeling method was used to label the γ phosphate group on ATP. […] Staurosporine was used as a reference molecule (or referred to as a positive control). […] The IC50 value can be obtained by the calculation of the inhibitory rates at a series of different concentrations of the tested compounds. […]
readout name: log10 of IC50 (log10 of the value in µM)
Values below are the log10 of the recorded IC50, with µM as the unit.

Examples with their reported log10 of IC50 follow.
CC(C)n1c(Nc2ccc(C(F)(F)F)cc2)nc2cnc(Nc3ccc(N4CCN(C)CC4)cc3)nc21 | -1.47
CC(C)n1c(Nc2ccc(NC(=O)Nc3ccc(F)c(Cl)c3)cc2)nc2cnc(Nc3ccc(N4CCN(C)CC4)cc3)nc21 | -1.96
CC(C)n1c(Nc2cccnc2)nc2cnc(Nc3ccc(N4CCN(C)CC4)cc3)nc21 | -1.51
CC(C)n1c(Nc2ccc(Br)cc2)nc2cnc(Nc3ccc(N4CCN(C)CC4)cc3)nc21 | -2.52
C=CC(=O)Nc1cccc(Nc2ncc3nc(Nc4ccccc4)n(C(C)C)c3n2)c1 | -2.70
CC(C)n1c(Nc2cccc(C(F)(F)F)c2)nc2cnc(Nc3ccc(N4CCN(C)CC4)cc3)nc21 | -2.52
CC(C)n1c(Nc2cccc(Br)c2)nc2cnc(Nc3ccc(N4CCN(C)CC4)cc3)nc21 | -2.15
CC(C)n1c(NC2CCCCC2)nc2cnc(Nc3ccc(N4CCN(C)CC4)cc3)nc21 | -1.82
CC(C)n1c(Nc2ccc(F)c(Cl)c2)nc2cnc(Nc3ccc(N4CCN(C)CC4)cc3)nc21 | -2.40
CC(C)n1c(Nc2ccccc2)nc2cnc(Nc3ccc(N4CCN(C)CC4)cc3)nc21 | -2.30

# input I'd like to know its log10 of IC50. The compound in question is COc1cccc(Nc2nc3cnc(Nc4ccc(N5CCN(C)CC5)cc4)nc3n2C(C)C)c1
# output -2.40

# input // next record CN1CCN(c2ccc(Nc3ncc4nc(Nc5ccccc5)n(C)c4n3)cc2)CC1
# output -1.92

# input What do you get for CN1CCN(c2ccc(Nc3ncc4nc(Nc5ccccc5)n(C5CC5)c4n3)cc2)CC1 ?
# output -2.15

# input And the next one, CC(C)n1c(Nc2ccccc2)nc2cnc(Nc3ccc(C(=O)NN4CCN(C)CC4)cc3)nc21 ?
# output -2.52

# input Please do the same for COc1ccc(Nc2nc3cnc(Nc4ccc(N5CCN(C)CC5)cc4)nc3n2C(C)C)cc1 as well.
# output -1.52

# input Okay, and CN1CCN(c2ccc(Nc3ncc4nc(Nc5ccccc5)[nH]c4n3)cc2)CC1 ?
# output -1.54

# input Also, CC(C)n1c(Nc2ccc(C(=O)Nc3cccc(F)c3)cc2)nc2cnc(Nc3ccc(N4CCN(C)CC4)cc3)nc21 please.
# output -0.93

# input Then CC(C)n1c(Nc2ccc(F)c(Cl)c2)nc2cnc(Nc3ccc(C(=O)NN4CCN(C)CC4)cc3)nc21 ?
# output -2.70

# input Now consider C#Cc1cccc(Nc2nc3cnc(Nc4ccc(N5CCN(C)CC5)cc4)nc3n2C(C)C)c1 and answer again.
# output -2.40
